- experimentalTarget: MIF (Homo sapiens (Human), UniProt P14174)
- Sequence (P14174 2-115): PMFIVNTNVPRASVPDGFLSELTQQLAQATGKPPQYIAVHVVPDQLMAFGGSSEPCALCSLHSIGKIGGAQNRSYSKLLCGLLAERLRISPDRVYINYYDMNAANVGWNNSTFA
- assayRemarks: MIF tautomerase assay using pHPP as substrate
- Type: biochemical
- experimentalParameters: cell-free, pHPP substrate 1.5 mM, MIF 3 nM; mean pIC50 of multiple test results
measureName: Tautomerase Inhibition pIC50

I: COc1cc(NC2CCN(C)C2)ccc1C(=O)NCc1nnc(-c2cccs2)o1 (centres unmarked)
II: COc1cc(O)ccc1C(=O)Nc1nnc(-c2cccs2)o1
III: COc1cc(N2CCOCC2)ccc1C(=O)NCc1nnc(-c2ccc(Cl)s2)o1
Input line: Kindly provide a descending ordering of the above compounds based on their Tautomerase Inhibition pIC50. Give the labels in the order requested.
Output line: II, III, I

* * *

- experimentalTarget: MIF (Homo sapiens (Human))
- assayRemarks: MIF tautomerase assay using pHPP as substrate
- Type: biochemical
- experimentalParameters: cell-free, pHPP substrate 1.5 mM, MIF 3 nM; mean pIC50 of multiple test results
measureName: Tautomerase Inhibition pIC50

COc1cc(N2CCOCC2)ccc1C(=O)Nc1nnc(-c2cccs2)o1	7.44
COc1ccc(C(=O)Nc2ccc(-c3ccco3)nn2)c(OC)c1	5.91
COc1cc(CN2CCCCC2)ccc1C(=O)NCc1nnc(-c2cccs2)o1	5.20
COc1cc(CN2CCOCC2)ccc1C(=O)NCc1nnc(-c2cccs2)o1	5.47
COc1ccc(C(=O)Nc2nnc(-c3ccccc3)o2)c(OC)c1	5.07

1: COc1ccc(C(=O)Nc2nnc(-c3ccc(O)cc3)o2)c(OC)c1
2: O=C(NCc1nnc(-c2cccs2)o1)c1ccccc1O
Input line: Of the pair 1 and 2 , name the member with the lesser recorded Tautomerase Inhibition pIC50. Answer by quoting the chosen item's label.
Output line: 2
(2: 3.10, 1: 5.58)

* * *

- experimentalTarget: MIF (Homo sapiens (Human))
- assayRemarks: MIF tautomerase assay using pHPP as substrate
- Format: biochemical
- experimentalParameters: cell-free, pHPP substrate 1.5 mM, MIF 3 nM; mean pIC50 of multiple test results
measureName: Tautomerase Inhibition pIC50

COc1cc(OC2CCN(C)C2)ccc1C(=O)NCc1nnc(-c2cccs2)o1 (centres unmarked)	5.53
COc1cc(N2CCCCC2)ccc1C(=O)NCc1nnc(-c2cccs2)o1	6.13
COc1cc(N2CCCC(C(=O)O)C2)ccc1C(=O)Nc1nnc(-c2cccs2)o1 (centres unmarked)	8.16
COc1cc(N2CCOCC2)ccc1C(=O)N(C)Cc1nnc(-c2cccs2)o1	4.20
COc1cc(N2CCOCC2)ccc1C(=O)NCc1nnc(-c2cccs2)o1	6.29
COc1ccc(C(=O)Nc2nnc(-c3sccc3F)o2)c(OC)c1	6.54
COc1cc(N2CCNCC2)ccc1C(=O)NCc1nnc(-c2cccs2)o1	5.95
COc1cc(N2CCN(C)CC2)ccc1C(=O)NCc1nnc(-c2cccs2)o1	5.90

* * *

- experimentalTarget: MIF (Homo sapiens (Human))
- assayRemarks: MIF tautomerase assay using pHPP as substrate
- Type: biochemical
- experimentalParameters: cell-free, pHPP substrate 1.5 mM, MIF 3 nM; mean pIC50 of multiple test results
measureName: Tautomerase Inhibition pIC50

1: COc1cc(CC(C)(C)O)ccc1C(=O)NCc1nnc(-c2cccs2)o1
2: COc1cccc(OC)c1C(=O)NCc1nnc(-c2cccs2)o1
Input line: Which item exceeds the other in Tautomerase Inhibition pIC50, 1 or 2 ? Could you answer with the label of the item you picked?
Output line: 1
(1: 6.04, 2: 3.70)

P: COc1cc(N2CC(C)OC(C)C2)ccc1C(=O)NCc1nnc(-c2cccs2)o1 (stereo not shown)
Q: O=C(NCc1nnc(-c2cccs2)o1)c1ccccc1OC(F)(F)F
Input line: // max by Tautomerase Inhibition pIC50 over [ P , Q ] Give the label under which the chosen entry appears.
Output line: P

1: COc1ccc(C(=O)Nc2nnc(-c3ccsc3)o2)c(OC)c1
2: COc1cc(N2CCOCC2)ccc1C(=O)N(C)C(C)(C)c1nnc(-c2cccs2)o1
3: O=C(NCc1nnc(-c2cccs2)o1)c1ccccc1Cl
Input line: Order the records by Tautomerase Inhibition pIC50, with each subsequent value no larger than the one before. Give the labels in the order requested.
Output line: 1, 3, 2
(1: 7.73, 3: 5.09, 2: 3.23)

* * *

Reported Tautomerase Inhibition pIC50 values for a set of molecules
- experimentalTarget: MIF (Homo sapiens (Human), UniProt P14174)
- assayRemarks: MIF tautomerase assay using pHPP as substrate
- Type: biochemical
- experimentalParameters: cell-free, pHPP substrate 1.5 mM, MIF 3 nM; mean pIC50 of multiple test results

COc1cc(N2CCOCC2)ccc1NC(=O)c1nnc(-c2cccs2)o1	<5

Please fill in: Tautomerase Inhibition pIC50 reported for COc1cc(N2CCOCC2)ccc1C(=O)NCc1nnc(-c2ccccc2)o1 = <5

The measured Tautomerase Inhibition pIC50 associated with COc1ccc(C(=O)Nc2nnc(-c3ccco3)o2)c(Cl)c1 reads <5

* * *

- experimentalTarget: UniProt P14174
- assayRemarks: MIF tautomerase assay using pHPP as substrate
- Assay type: biochemical
- experimentalParameters: cell-free, pHPP substrate 1.5 mM, MIF 3 nM; mean pIC50 of multiple test results
- Protocol: Tautomerase Assay Using pHPP as substrate This assay measured MIF's tautomerase activity in a cell-free system and was based on the determination of initial rates of the MIF-catalyzed conversion of the ketonic into the enolic tautomer of pHPP. This was achieved by spectrophotometric quantification of the complex between borate and the product of the reaction (enolic pHPP). The substrate was prepared by conversion of the enolic pHPP into its ketonic form. […]
measureName: Tautomerase Inhibition pIC50

COCCOc1ccc(C(=O)NCc2nnc(-c3cccs3)o2)c(OC)c1	6.21
COc1cc(OCCO)ccc1C(=O)Nc1nnc(-c2cccs2)o1	7.98
COc1cc(N2CCCC2C(=O)O)ccc1C(=O)Nc1nnc(-c2cccs2)o1 (stereo not drawn)	7.90
COc1cc(OCCOCc2ccccc2)ccc1C(=O)Nc1nnc(-c2cccs2)o1	7.63
COc1cc(OCCO)ccc1C(=O)NCc1nnc(-c2cccs2)o1	6.12
CNCCNc1ccc(C(=O)NCc2nnc(-c3cccs3)o2)c(OC)c1	5.66
COc1cc(CCCc2nn[nH]n2)ccc1C(=O)Nc1nnc(-c2cccs2)o1	7.95
COc1cc(CCCC#N)ccc1C(=O)Nc1nnc(-c2cccs2)o1	7.68
COc1cc(N2CC3CC(C2)O3)ccc1C(=O)Nc1nnc(-c2cccs2)o1	7.29
COc1cc(C2=CCC(C(=O)O)CC2)ccc1C(=O)Nc1nnc(-c2cccs2)o1 (stereo not drawn)	8.14
COc1cc(N2CC3CC(C2)O3)ccc1C(=O)NCc1nnc(-c2cccs2)o1	6.29
COc1cc(OCc2nn[nH]n2)ccc1C(=O)Nc1nnc(-c2cccs2)o1	7.91
CCOc1ccccc1C(=O)Nc1nnc(-c2cccs2)o1	5.90
